Measured Tmax values are reported for all entries that follow.
# Assay notes: Pharmacokinetic profile of cannabinoid sulfate esters compared to CBD
# Experimental setup: plasma
Counter-ions that a name gives are not always drawn.
Provide the reading as a plain figure in h.

compound="C=C(C)[C@@H]1CCC(C)=C[C@H]1c1c(O)cc(CCCCC)cc1OS(=O)(=O)O [CBD sulfate piperazinium salt]" assay_value=1

Look up and report measured Tmax for this entry: C=C(C)[C@@H]1CCC(C)=C[C@H]1c1c(O)cc(CCCCC)cc1OS(=O)(=O)O [CBD sulfate morpholinium salt]
1

Look up and report measured Tmax for this entry: C=C(C)[C@@H]1CCC(C)=C[C@H]1c1c(O)cc(CCCCC)cc1OS(=O)(=O)[O-].[Na+] [CBD sulfate sodium salt]
1

Look up and report measured Tmax for this entry: C=C(C)[C@@H]1CCC(C)=C[C@H]1c1c(O)cc(CCCCC)cc1O [CBD, cannabidiol, reference compound]
0.5

---

# Assay notes: Pharmacokinetic profile of cannabinoid sulfate esters compared to CBD
# Experimental setup: plasma, Cmax, maximum plasma concentration
Structures can show the parent of a compound that is named as a salt.
Experimental readout: Cmax (µg/mL)
Provide the reading as a plain figure in µg/mL.

Look up and report measured Cmax for this entry: C=C(C)[C@@H]1CCC(C)=C[C@H]1c1c(O)cc(CCCCC)cc1OS(=O)(=O)O [CBD sulfate piperazinium salt]
0.019

---

Measured half-life values are reported for all entries that follow.
# Assay notes: Pharmacokinetic profile of cannabinoid sulfate esters compared to CBD
# Experimental setup: plasma
Where a name gives a salt, the structure may show the parent alone.
Provide the reading as a plain figure in h.

Record excerpt, results attached:
compound="C=C(C)[C@@H]1CCC(C)=C[C@H]1c1c(O)cc(CCCCC)cc1O [CBD, cannabidiol, reference compound]" assay_value=3.9
compound="C=C(C)[C@@H]1CCC(C)=C[C@H]1c1c(O)cc(CCCCC)cc1OS(=O)(=O)O [CBD sulfate morpholinium salt]" assay_value=32.7

Consider the additional compound presented here.
Look up and report measured half-life for this entry: C=C(C)[C@@H]1CCC(C)=C[C@H]1c1c(O)cc(CCCCC)cc1OS(=O)(=O)[O-].[Na+] [CBD sulfate sodium salt]
2.9
